Items are presented alongside their recorded melting point.
parameter: melting point

- molecule: "COc1cc(NS(=O)(=O)c2cccc(C(F)(F)F)c2)cc(OC)c1"
  parameter: "melting point"
  recorded-value: "78 to 81 °C"
- molecule: "CC(C)C[C@H](NC(=O)[C@@H]1CCCN1c1nc2ccccc2c(=O)o1)C(=O)NCC(N)=O"
  parameter: "melting point"
  recorded-value: "199 to 201 °C"
- molecule: "CN1C/C(=C/C(=O)Nc2ccc(Cl)nn2)C[C@@H]2c3cccc4[nH]cc(c34)C[C@H]21"
  parameter: "melting point"
  recorded-value: "242 to 243 °C"
- molecule: "CC(=O)NCC(C)(C)c1ccc(C(=O)Nc2cn3cc(-n4ccnc4)ccc3n2)cc1"
  parameter: "melting point"
  recorded-value: "242 to 244 °C"
- molecule: "CCOC(=O)NC(=S)N1CC1C#N (stereo not given)"
  parameter: "melting point"
  recorded-value: "152 to 155 °C"
- molecule: "CCCC1CCC2c3ccc(OCC)c(F)c3OC2C1 (stereo not given)"
  parameter: "melting point"
  recorded-value: "128 °C"
- molecule: "CCOC(=O)C(=CNc1cc(C)no1)C(=O)OCC"
  parameter: "melting point"
  recorded-value: "134 to 136 °C"
- molecule: "Cc1cc2c(-c3ccccc3)c(CN)n(C)c(=O)c2cc1C"
  parameter: "melting point"
  recorded-value: "163 to 165 °C"
- molecule: "Cc1nc(-c2ccccc2)nc2sc3c(N4CCNCC4)nc(Cl)nc3c12"
  parameter: "melting point"
  recorded-value: "> 310 °C"
- molecule: "CCn1cc(-c2ccc(F)c(C)c2)nc1COCc1ccccc1"
  parameter: "melting point"
  recorded-value: "200 °C"
- molecule: "CCCCc1ccc(-c2nc3ccccc3[nH]2)nc1"
  parameter: "melting point"
  recorded-value: "138 to 139 °C"
- molecule: "COc1ccc(-c2ccc3c(C#N)c(OC)ccc3c2)cc1"
  parameter: "melting point"
  recorded-value: "182 to 185 °C"
- molecule: "O=S(=O)(NCC(O)CN1c2ccccc2CCc2ccccc21)c1ccc(OC(F)(F)F)cc1 (stereo not given)"
  parameter: "melting point"
  recorded-value: "102 to 103 °C"
- molecule: "CC(=O)Nc1cc2c(cc1[N+](=O)[O-])OC(C)(C)[C@@H](O)[C@@H]2NC(=O)CCCCl (relative stereo)"
  parameter: "melting point"
  recorded-value: "178 to 180 °C"
- molecule: "O=C(O)C(Cc1ccccc1F)Cc1ccccc1F"
  parameter: "melting point"
  recorded-value: "110 to 111 °C"
- molecule: "CNS(=O)(=O)CC(N)=O"
  parameter: "melting point"
  recorded-value: "104 to 108 °C"
- molecule: "COC(=O)CS(=O)(=O)c1ccc(N2CCN(c3ccc(C#N)cc3)C2=O)cc1"
  parameter: "melting point"
  recorded-value: "246 to 249 °C"
- molecule: "CC(C)(Sc1cccc(OCc2ccc(-c3ccc([N+](=O)[O-])cc3)o2)c1)C(=O)O"
  parameter: "melting point"
  recorded-value: "137 to 138 °C"
- molecule: "NS(=O)(=O)CCNC(=O)OCc1ccccc1"
  parameter: "melting point"
  recorded-value: "107 to 109 °C"
- molecule: "COc1ccc2c(c1)c(CC(N)=O)c(C)n2Cc1ccc(OCc2ccccc2)cc1"
  parameter: "melting point"
  recorded-value: "155 to 157 °C"
- molecule: "CCCCc1nn(-c2cc([N+](=O)[O-])ccc2Cl)c(=O)n1Cc1ccc(-c2ccccc2S(=O)(=O)NC(C)(C)C)cc1"
  parameter: "melting point"
  recorded-value: "> 75 °C"
- molecule: "COc1ccc(N2CCN(c3c(C)c(C)c4c(c3C)C(c3ccc(C)cn3)C(C)(C)O4)CC2)cc1 (stereo not given)"
  parameter: "melting point"
  recorded-value: "186 to 187 °C"
- molecule: "CC(N(CCCl)C(N)=O)P(=O)(O)O (stereo not given)"
  parameter: "melting point"
  recorded-value: "180 °C"
- molecule: "Cc1nc(Cl)c([N+](=O)[O-])c(NCC(C)(C)N)c1C"
  parameter: "melting point"
  recorded-value: "89 to 94 °C"
- molecule: "Cc1ccc2[nH]c3c(cc(-c4cccc(C=O)c4)c(=O)n3C)c2c1"
  parameter: "melting point"
  recorded-value: "280 °C"
- molecule: "C#CCOC(=O)C1=C(C)NC(C)=C(C(=O)OCC)C1c1ccccc1C (stereo not given)"
  parameter: "melting point"
  recorded-value: "129 °C"
- molecule: "C=CCN(CC=C)C(=O)Nc1cc(C)c(S(=O)(=O)C[N+](=O)[O-])c(C)c1"
  parameter: "melting point"
  recorded-value: "127 to 129 °C"
- molecule: "CC(=O)CSc1nc2ccccc2[nH]1"
  parameter: "melting point"
  recorded-value: "112 to 113 °C"
- molecule: "CCOC(=O)C(=O)N(c1ccccc1N)C(C)(C)C"
  parameter: "melting point"
  recorded-value: "64 to 65 °C"
- molecule: "COC(=O)Cc1ccccc1[C@@H]1O[C@H]1c1ccccc1 (relative stereo)"
  parameter: "melting point"
  recorded-value: "118 to 119 °C"
- molecule: "COc1cccc(NS(=O)(=O)c2cccc(C=CC(=O)NO)c2)c1"
  parameter: "melting point"
  recorded-value: "137 °C"
- molecule: "O=C(c1ccc(-n2ccc(CO)n2)cc1Cl)N1Cc2cccn2Cc2ccccc21"
  parameter: "melting point"
  recorded-value: "85 °C"
- molecule: "CCCc1nc2cc(CC(=O)O)ccc2o1"
  parameter: "melting point"
  recorded-value: "67 to 68 °C"
- molecule: "COc1cc(Cl)cnc1N"
  parameter: "melting point"
  recorded-value: "93 to 94 °C"
- molecule: "CC(C)(C)CC(=O)c1c(CC(C)(C)C(=O)O)n(Cc2ccc(Cl)cc2)c2ccc(OCc3ccc4ccccc4n3)cc12"
  parameter: "melting point"
  recorded-value: "183 to 184 °C"
- molecule: "CN1CC2Cc3ccc(Cl)cc3C(O)C2C1 (stereo not given)"
  parameter: "melting point"
  recorded-value: "178 to 182 °C"
- molecule: "COc1cc(CCC(=O)CC(=O)c2ccc(-c3ccccc3)cc2)ccc1O"
  parameter: "melting point"
  recorded-value: "118 to 119 °C"
- molecule: "Cc1cc(-n2ccnc2)c2cccc(OCc3c(Cl)ccc(S(=O)(=O)N4CCC[C@H]4C(=O)NCCc4ccccn4)c3Cl)c2n1"
  parameter: "melting point"
  recorded-value: "82 °C"
- molecule: "COC(=O)COc1ccc(C(=O)CNC(=O)c2ccc(C#N)cc2)cc1"
  parameter: "melting point"
  recorded-value: "200 to 203 °C"
- molecule: "COCCc1nc2c(N)nc3cc(-c4ccccc4)ccc3c2n1CC(C)(C)O"
  parameter: "melting point"
  recorded-value: "226 to 227 °C"

These entries and their values trace back to a melting point compilation (Tetko et al.; mined from patent text by program, amines drawn as free bases though some values may be those of a salt).
